# System: SF-295 CNS
# assay overview: NCI-60 one-dose screen, 48 h
# condition summary: 10 µM unless noted
This is part of a sample that, as a whole, favours compounds with a hit. Of some 83,000 tested, about 20% had one in any assay. The source made the active and inactive calls. Rule for the calls: active = growth percent below 10; inactive = the rest.
Possible outcomes: T (active), F (inactive)

>>> assigned_label("O=C(/C=C/Nc1ccc(S(=O)(=O)O)cc1)c1ccc(F)cc1")
"F"
>>> assigned_label("CCOC(=O)/C(F)=C/C1CC1C1CCCCC1 (stereo not given)")
"F"
>>> assigned_label("CN(C)c1ncc(/C=C2\\SC(=S)N(Cc3ccccc3Cl)C2=O)s1")
"F"
>>> assigned_label("Cc1cc(=O)n2nc(-c3cn(C)c4ccc(Cl)cc34)sc2n1")
"F"
>>> assigned_label("O=C(/C=C1\\C=CN(CCCCCCF)c2ccccc21)n1ccc2ccccc21")
"F"
>>> assigned_label("C#CCOc1ccc(C(Nc2cc(Cl)ccc2Cl)c2nnnn2C2CCCCC2)cc1 (stereo not given)")
"F"
>>> assigned_label("CCNCc1c(-c2cccc(OC(F)(F)F)c2)[nH]c2ccc(N3CCCC3)cc2c1=O")
"T"
>>> assigned_label("Cc1cc(O)c2c(c1)C(=O)C(c1c(C)cc3c(c1O)C(=O)C=CC3=O)=CC2=O")
"F"
>>> assigned_label("COc1ccc(NC(=O)[C@H](C)N)cc1C(=O)Nc1cccc(-c2cc(=O)c3c(OC)c(OC)c(OC)cc3o2)c1")
"F"
>>> assigned_label("c1cncc(-c2cn3nc(-c4c[nH]c5ccccc45)sc3n2)c1")
"F"

----------
Attribute: growth
# Test system: PC-3 prostate
# assay overview: NCI-60 one-dose screen, 48 h (100 = growth as untreated, 0 = no growth, -100 = all killed)
# condition summary: 10 µM unless noted
About 83,000 compounds went through this panel and 20% of them were active in at least one assay; those are over-represented in the sample as a whole.
measured attribute: growth (%)

>>> result_number("CC(=O)c1sc(Nc2cccc(Nc3nc(C)c(C)s3)c2)nc1C")
51.3
>>> result_number("O=C(NNc1nc2cc(F)c(F)cc2n2cccc12)c1ccncn1")
33.2
>>> result_number("C/C(=N\\NC(=S)Nc1ccc(Br)cc1)c1cc2ccccc2oc1=O")
26.7
>>> result_number("O=C(NNc1nc2cc(F)c(F)cc2n2cccc12)c1ncccn1")
32.4
>>> result_number("Oc1ccc(CSc2nnc(-c3cnccn3)o2)c2cccnc12")
15.2
>>> result_number("COCCOc1ccc(-c2csc(NC(C)=O)n2)cc1NS(=O)(=O)c1cccc2c(N(C)C)cccc12")
68.5
>>> result_number("Cc1ccc(NC(=O)c2cccc(CN3CCN(C)CC3)c2)cc1Oc1ccc(-c2[nH]nc3ncnc(N)c23)cc1")
72.9
>>> result_number("C=CCn1c(SCC(=O)Nc2cccc(C(=O)/C=C/c3ccc(OC)c(OC)c3)c2)nc2ccccc2c1=O")
79.7
>>> result_number("O=C1c2cc(Br)ccc2-n2c1nc1cc(Br)ccc1c2=O")
60.9
>>> result_number("Cc1ccc(-c2cc(-c3ccc(N(C)C)cc3)n3c(n2)nc2ccccc23)cc1")
47.8

----------
Attribute: growth
# Tested on: A549/ATCC NSCLC
# assay overview: NCI-60 one-dose screen, 48 h (100 = growth as untreated, 0 = no growth, -100 = all killed)
# condition summary: 10 µM unless noted
About 83,000 compounds went through this panel and 20% of them were active in at least one assay; those are over-represented in the sample as a whole.
measured attribute: growth (%)

>>> result_number("COc1ccc(/C=N/Nc2nc(N/N=C/c3ccc(OC)cc3O)nc(N3CCOCC3)n2)c(O)c1")
53
>>> result_number("COc1ccc(-c2ccc3c4c(cccc24)C(=O)N(N2C(=O)c4cccc5cccc(c45)C2=O)C3=O)cc1")
107
>>> result_number("CS(=O)(=O)c1ccc(-c2nn(-c3ccccc3)cc2/C=N/NC(=O)c2ccncc2)cc1")
102
>>> result_number("Brc1cccc(/C=N/Nc2nc(N/N=C/c3cccc(Br)c3)nc(N3CCOCC3)n2)c1")
42.6
>>> result_number("O=C1[C@H]2Cc3c([nH]c4ccccc34)[C@H](c3ccc(Cl)cc3)N2C(=O)CN1C1CCN(Cc2c(Cl)cccc2Cl)CC1")
66.9
>>> result_number("C/C(Cc1ccc(Cl)cc1)=C(/c1ccccc1)c1ccc(OCCN)cc1")
99.1
>>> result_number("COc1ccc([C@H]2[C@H](O)C(=O)N2c2cc(OC)c(OC)c(OC)c2)cc1Cl")
19.1
>>> result_number("Cc1cc(C(=O)Nc2ccc(SC#N)cc2)c(C)o1")
82.4
>>> result_number("O=C1[C@H]2Cc3c([nH]c4ccccc34)[C@@H](c3ccc(Cl)cc3)N2C(=O)CN1C1CCN(Cc2c(Cl)cccc2Cl)CC1")
87.6

----------
# Test system: SF-268 CNS
# assay overview: NCI-60 one-dose screen, 48 h
# condition summary: 10 µM unless noted
About 83,000 compounds went through this panel and 20% of them were active in at least one assay; those are over-represented in the sample as a whole. The source made the active and inactive calls. The calls were made as follows: active = growth percent below 10; inactive = the rest.
Possible outcomes: Y = active, N = inactive

>>> assigned_label("Cn1cc(-c2nn3cc(-c4cccnc4)nc3s2)c2cc(F)ccc21")
"N"
>>> assigned_label("O=C(COc1cccc2cccnc12)Nc1ccc(C(=O)/C=C/c2ccc(Cl)cc2)cc1")
"N"
>>> assigned_label("COc1ccc(-c2nn(-c3ccccc3)cc2/C=C/C(=O)c2ccc(NC(=O)CCCCCCC(=O)NO)cc2)cc1")
"N"
>>> assigned_label("Cc1ccc(/C=C/CC(=O)Nc2ccc(C(=O)Nc3ccc(F)cc3N)nc2)cn1")
"N"
>>> assigned_label("C(=C(\\C1=NCCN1)n1cnc2ccccc21)/c1cccc2ccccc12")
"N"
>>> assigned_label("O=S(=O)(Nc1ccc(C2CC2)cc1)c1ccc(-c2cnc(C3CC3)o2)cc1")
"N"
>>> assigned_label("O=C(/C=C/c1cccc(O)c1)c1ccc(O)cc1")
"N"
>>> assigned_label("COc1cc(/C=C/C(=O)c2ccc(NC(=O)CSc3nnc(-c4ccc5nc(-c6ccccc6)[nH]c5c4)o3)cc2)cc(OC)c1OC")
"N"
>>> assigned_label("C/C(=C(/C)C1CC1CCN(C(=O)c1ccccn1)S(=O)(=O)c1ccc(C)cc1)C1CCCCC1 (centres undefined)")
"N"
>>> assigned_label("CS(=O)(=O)c1ccc(-c2nn(-c3ccccc3)cc2/C=N/NC(=O)c2ccncc2)cc1")
"N"
>>> assigned_label("O=C1[C@@H]2Cc3c([nH]c4ccccc34)[C@H](c3c(Cl)cccc3Cl)N2C(=O)CN1C1CCN(Cc2c(F)cccc2F)CC1")
"N"
>>> assigned_label("COc1ccc(-c2nc3cc(Cl)c(Cl)cc3n2CC(=O)N=Nc2c(O)[nH]c3ccc(Br)cc23)cc1")
"Y"
>>> assigned_label("O=S(=O)(NC1CC2CCC1C2)c1ccc2c(c1)C(=NO)c1cc(S(=O)(=O)NC3CC4CCC3C4)ccc1-2 (centres undefined)")
"Y"
>>> assigned_label("COc1cc(/C=C2\\SC(=O)NC2=O)ccc1OCC(=O)Nc1ccc(C(=O)/C=C/c2cc3ccccc3nc2Cl)cc1")
"N"
>>> assigned_label("N#Cc1c(NC(=O)c2ccc(F)c(Cl)c2)sc2c1CCC(=O)C2")
"N"
>>> assigned_label("Cn1cc2c(c1)-c1c(sc3nc(-c4ccc(NC(=O)Nc5cc(C(C)(C)C)on5)cc4)cn13)CC2")
"N"
>>> assigned_label("O=c1[nH]c2cc(Cl)ccc2n1C1CCN(c2ccc3nnc(Cl)n3n2)CC1")
"N"
>>> assigned_label("Oc1ccccc1-c1nnc(SCc2ccc(O)c3ncccc23)n1-c1ccccc1")
"N"
>>> assigned_label("Cc1ccc(NC(=O)c2cc(/C=C/C(=O)NO)cc(C(F)(F)F)c2)cc1Nc1nccc(-c2cccnc2)n1")
"Y"
>>> assigned_label("CCn1c2ccc(/C=N/NS(=O)(=O)CCN(C)C)cc2c2cc(/C=N/NS(=O)(=O)CCN(C)C)ccc21")
"N"
>>> assigned_label("CC1OC(O[C@@H]2[C@H](O)C(CO)OC(O[C@H]3COC(O[C@H]4CC[C@]5(C)[C@H]6CC[C@]78OC[C@@]9(CC[C@](C)(C=O)C[C@H]97)C(=O)C[C@@]8(C)[C@]6(C)CC[C@H]5C4(C)C)[C@@H](O)[C@@H]3O)[C@H]2OC2OC[C@@H](O)[C@@H](O)[C@@H]2O)[C@@H](O)[C@@H](O)[C@H]1O (some centres undefined)")
"N"
>>> assigned_label("Cn1ccnc1C(=O)/C=C/c1ccc(C(=O)Nc2ccc(NC(=O)CCNC(=O)c3csc(Br)n3)cc2)cc1")
"N"
>>> assigned_label("CN1C(=O)N(C)C2C1NN=c1s/c(=C\\c3ccccn3)c(=O)n12 (centres undefined)")
"N"
>>> assigned_label("COc1ccc([C@H]2c3[nH]c4ccccc4c3C[C@@H]3C(=O)N(C4CCN(Cc5ccccc5)CC4)CC(=O)N23)c(OC)c1")
"N"
>>> assigned_label("CCCC(=O)NC(c1cccnc1)c1cc(Cl)c2cccnc2c1O (centres undefined)")
"N"
>>> assigned_label("Oc1ccc(-c2nnc(SCc3ccc(O)c4ncccc34)n2-c2ccccc2)cc1")
"N"
>>> assigned_label("COc1cc2c3c(n(CCCN4CCCC4)c(=O)c2cc1OC)-c1cc2c(cc1C3=O)OCO2")
"Y"
>>> assigned_label("COc1ccc(OC)c([C@H]2c3[nH]c4ccccc4c3C[C@H]3C(=O)N(CCCCCCC(=O)NO)CC(=O)N23)c1")
"N"
>>> assigned_label("CC(C)SC1=NC(=C(C(=N1)NC2=ClC=CC=C2)C#N)C3=CC=CC=C3")
"N"
>>> assigned_label("CCNC(=O)Oc1ccc(/C(=C(/C)c2ccccc2)c2ccc(OCCN3CCCC3)cc2)cc1")
"N"
>>> assigned_label("Cc1ccc(/C=C/CC(=O)Nc2ccc(C(=O)Nc3ccc(F)cc3N)cc2)cn1")
"N"
>>> assigned_label("COc1ccc(Oc2ccc(C3CC(c4cc(OC)c(OC)c(OC)c4)=NN3C(C)=O)cc2)cc1 (centres undefined)")
"N"
>>> assigned_label("O=C(NCCCNc1cc(-c2cn(-c3ccccc3)nc2-c2cccc(O)c2)ccn1)Nc1ccc(F)cc1")
"N"
>>> assigned_label("O=C(CSc1ccc(-c2nc3ccccc3[nH]2)cn1)N1CCN(c2ccccc2F)CC1")
"N"
